- COND: siRNA; note: test system not given here
HELM strings list units from the 5' end as sugar, base in round brackets, then linkage (d deoxyribose, r ribose, m 2'-O-methyl, p phosphodiester). Strings are as the collection lists them, not checked against the first reports. ss, as = sense and antisense strand; [fl2r] = 2'-fluoro
RECORDED ENDPOINT: target mRNA knockdown (%)
Respond with the bare value in %.

Tell me the measured target mRNA knockdown of RNA1{r(A)p.r(U)p.r(C)p.r(U)p.r(G)p.r(A)p.r(A)p.r(G)p.r(A)p.r(A)p.r(G)p.r(G)p.r(A)p.r(G)p.r(A)p.r(A)p.r(A)p.r(A)p.r(A)p.d(T)p.d(T)}|RNA2{r(U)p.r(U)p.r(U)p.r(U)p.r(U)p.r(C)p.r(U)p.r(C)p.r(C)p.r(U)p.r(U)p.r(C)p.r(U)p.r(U)p.r(C)p.r(A)p.r(G)p.r(A)p.r(U)p.d(T)p.d(T)}$$$RNA1{StrandType:ss}|RNA2{StrandType:as}$ , please.
95

Need target mRNA knockdown, item RNA1{r(G)p.r(G)p.r(C)p.r(C)p.r(A)p.r(A)p.r(A)p.r(G)p.m(U)p.r(A)p.r(A)p.r(U)p.r(C)p.r(G)p.r(U)p.r(G)p.r(G)p.r(U)p.r(U)p.r(T)p.r(T)}|RNA2{r(A)p.r(A)p.r(C)p.r(C)p.r(A)p.r(C)p.r(G)p.r(A)p.r(U)p.m(U)p.r(A)p.r(C)p.r(U)p.r(U)p.r(U)p.r(G)p.r(G)p.r(C)p.r(C)p.r(T)p.r(T)}$$$RNA1{StrandType:ss}|RNA2{StrandType:as}$
85

Bench note: what target mRNA knockdown did RNA1{r(A)p.r(A)p.r(A)p.r(C)p.r(C)p.r(C)p.r(C)p.[fl2r](U)p.r(A)p.r(G)p.r(A)p.r(G)p.r(G)p.[fl2r](G)p.r(C)p.r(A)p.r(A)p.r(G)p.r(U)p.r(T)p.r(T)}|RNA2{r(A)p.r(C)p.r(U)p.[fl2r](U)p.r(G)p.r(C)p.r(C)p.r(C)p.r(U)p.r(C)p.[fl2r](U)p.r(A)p.r(G)p.r(G)p.r(G)p.r(G)p.r(U)p.r(U)p.r(U)p.r(T)p.r(T)}$$$RNA1{StrandType:ss}|RNA2{StrandType:as}$ show?
82

====

- COND: siRNA
HELM strings list units from the 5' end as sugar, base in round brackets, then linkage (d deoxyribose, r ribose, m 2'-O-methyl, p phosphodiester). Strings are as the collection lists them, not checked against the first reports. ss, as = sense and antisense strand; [s4r] = 4'-thioribose
RECORDED ENDPOINT: target mRNA knockdown (%)
Unit % implied. Number only.

I am curious: what target mRNA knockdown value has been reported for RNA1{m(G)p.m(A)p.m(G)p.m(G)p.m(A)p.m(A)p.m(G)p.m(A)p.r(U)p.m(G)p.m(A)p.m(G)p.r(U)p.r(U)p.m(G)p.r(U)p.m(A)p.r(C)p.r(C)p.r(T)p.r(T)}|RNA2{r(G)p.r(G)p.r(U)p.r(A)p.r(C)p.r(A)p.r(A)p.r(C)p.r(U)p.r(C)p.r(A)p.r(U)p.r(C)p.r(U)p.r(U)p.r(C)p.r(C)p.r(U)p.r(C)p.r(T)p.r(T)}$$$RNA1{StrandType:ss}|RNA2{StrandType:as}$ ?
70

Field request: target mRNA knockdown | item: RNA1{[s4r](C)p.[s4r](G)p.r(U)p.r(A)p.r(C)p.r(G)p.r(C)p.r(G)p.r(G)p.r(A)p.r(A)p.r(U)p.r(A)p.r(C)p.r(U)p.r(U)p.r(C)p.r(G)p.r(A)p.r(T)p.r(T)}|RNA2{r(U)p.r(C)p.r(G)p.r(A)p.r(A)p.r(G)p.r(U)p.r(A)p.r(U)p.r(U)p.r(C)p.r(C)p.r(G)p.r(C)p.r(G)p.r(U)p.r(A)p.[s4r](C)p.[s4r](G)p.r(T)p.r(T)}$$$RNA1{StrandType:ss}|RNA2{StrandType:as}$
91.3

Entry RNA1{m(A)p.r(G)p.r(C)p.r(U)p.r(C)p.r(U)p.r(U)p.r(U)p.r(G)p.r(U)p.r(C)p.m(A)p.r(C)p.r(C)p.r(U)p.r(C)p.r(U)p.r(C)p.r(U)p.r(T)p.r(T)}|RNA2{m(A)p.r(G)p.m(A)p.r(G)p.m(A)p.r(G)p.m(G)p.r(U)p.m(G)p.r(A)p.m(C)p.r(A)p.m(A)p.r(A)p.m(G)p.r(A)p.m(G)p.r(C)p.m(U)p.r(T)p.r(T)}$$$RNA1{StrandType:ss}|RNA2{StrandType:as}$ has what target mRNA knockdown?
19

====

- COND: siRNA
HELM strings list units from the 5' end as sugar, base in round brackets, then linkage (d deoxyribose, r ribose, m 2'-O-methyl, p phosphodiester). Strings are as the collection lists them, not checked against the first reports. ss, as = sense and antisense strand; [lna] = locked nucleic acid (LNA); [s4r] = 4'-thioribose; [fl2r] = 2'-fluoro
Task for the reader: assign each of the following substances its reported target mRNA knockdown.
The answer is to be given in %; state only the numeric part.

# target mRNA knockdown lookup, item RNA1{r(A)p.r(A)p.r(A)p.r(G)p.r(C)p.r(G)p.r(G)p.r(U)p.r(G)p.r(G)p.r(A)p.r(U)p.r(C)p.r(A)p.r(G)p.r(C)p.r(U)p.r(C)p.r(U)p.r(T)p.r(T)}|RNA2{r(A)p.r(G)p.r(A)p.r(G)p.r(C)p.m(U)p.r(G)p.r(A)p.r(U)p.r(C)p.m(C)p.r(A)p.r(C)p.r(C)p.r(G)p.r(C)p.r(U)p.r(U)p.r(U)p.r(T)p.r(T)}$$$RNA1{StrandType:ss}|RNA2{StrandType:as}$
67

Which target mRNA knockdown value is on record for RNA1{r(C)p.r(G)p.r(A)p.r(A)p.r(A)p.r(G)p.[fl2r](U)p.r(G)p.[fl2r](U)p.r(A)p.r(U)p.r(C)p.r(C)p.r(G)p.r(A)p.r(A)p.r(G)p.r(A)p.r(C)p.r(T)p.r(T)}|RNA2{r(G)p.r(U)p.r(C)p.r(U)p.r(U)p.r(C)p.r(G)p.r(G)p.r(A)p.[fl2r](U)p.r(A)p.[fl2r](C)p.r(A)p.r(C)p.r(U)p.r(U)p.r(U)p.r(C)p.r(G)p.r(T)p.r(T)}$$$RNA1{StrandType:ss}|RNA2{StrandType:as}$ ?
75

Return reported target mRNA knockdown; argument: RNA1{r(A)p.r(A)p.r(G)p.r(G)p.r(A)p.r(C)p.r(C)p.m(U)p.r(A)p.r(G)p.r(A)p.r(G)p.r(G)p.r(A)p.r(G)p.r(U)p.r(C)p.r(A)p.r(C)p.r(T)p.r(T)}|RNA2{r(G)p.m(U)p.r(G)p.r(A)p.r(C)p.r(U)p.r(C)p.r(C)p.r(U)p.r(C)p.r(U)p.r(A)p.r(G)p.r(G)p.r(U)p.r(C)p.r(C)p.r(U)p.r(U)p.r(T)p.r(T)}$$$RNA1{StrandType:ss}|RNA2{StrandType:as}$
80

GET /values?readout=target mRNA knockdown&item= RNA1{[lna](A)p.r(C)p.r(U)p.r(G)p.r(U)p.r(C)p.r(A)p.r(A)p.r(A)p.r(C)p.r(C)p.r(C)p.r(G)p.r(G)p.r(U)p.r(A)p.r(A)p.r(U)p.r(U)p.[lna](T)p.[lna](T)}|RNA2{r(A)p.r(A)p.r(U)p.r(U)p.r(A)p.r(C)p.r(C)p.r(G)p.r(G)p.r(G)p.r(U)p.r(U)p.r(U)p.r(G)p.r(A)p.r(C)p.r(A)p.r(G)p.r(U)p.[lna](T)p.[lna](T)}$$$RNA1{StrandType:ss}|RNA2{StrandType:as}$
52

Please look up its target mRNA knockdown: RNA1{[s4r](C)p.[s4r](G)p.[s4r](U)p.[s4r](A)p.[s4r](C)p.[s4r](G)p.r(C)p.r(G)p.r(G)p.r(A)p.r(A)p.r(U)p.r(A)p.[s4r](C)p.[s4r](U)p.[s4r](U)p.[s4r](C)p.[s4r](G)p.[s4r](A)p.r(T)p.r(T)}|RNA2{r(U)p.r(C)p.r(G)p.r(A)p.r(A)p.r(G)p.r(U)p.r(A)p.r(U)p.r(U)p.r(C)p.r(C)p.r(G)p.r(C)p.r(G)p.r(U)p.r(A)p.r(C)p.r(G)p.r(T)p.r(T)}$$$RNA1{StrandType:ss}|RNA2{StrandType:as}$
91.5

====

- COND: siRNA
HELM strings list units from the 5' end as sugar, base in round brackets, then linkage (d deoxyribose, r ribose, m 2'-O-methyl, p phosphodiester). Strings are as the collection lists them, not checked against the first reports. ss, as = sense and antisense strand; [fl2r] = 2'-fluoro
RECORDED ENDPOINT: target mRNA knockdown
Answer with the number, then the unit.

Which value of target mRNA knockdown has been reported for RNA1{m(G)p.r(A)p.m(A)p.r(G)p.m(A)p.r(G)p.m(U)p.r(U)p.m(A)p.r(A)p.m(C)p.r(C)p.m(C)p.r(G)p.m(G)p.r(G)p.m(A)p.r(C)p.r(U)p.r(T)p.r(T)}|RNA2{r(A)p.r(G)p.r(U)p.r(C)p.r(C)p.r(C)p.r(G)p.r(G)p.r(G)p.r(U)p.r(U)p.r(A)p.r(A)p.r(C)p.r(U)p.r(C)p.r(U)p.r(U)p.r(C)p.r(T)p.r(T)}$$$RNA1{StrandType:ss}|RNA2{StrandType:as}$ in the records?
17%

Request the reported target mRNA knockdown associated with RNA1{r(A)p.[fl2r](A)p.r(G)p.r(G)p.r(C)p.[fl2r](C)p.r(A)p.r(A)p.r(C)p.r(C)p.r(G)p.r(A)p.[fl2r](U)p.r(A)p.r(C)p.r(U)p.r(U)p.r(C)p.r(U)p.r(T)p.r(T)}|RNA2{r(A)p.r(G)p.r(A)p.r(A)p.r(G)p.[fl2r](U)p.r(A)p.r(U)p.r(C)p.r(G)p.r(G)p.r(U)p.[fl2r](U)p.r(G)p.r(G)p.r(C)p.r(C)p.r(U)p.r(U)p.r(T)p.r(T)}$$$RNA1{StrandType:ss}|RNA2{StrandType:as}$
68%

Values from the OligoGym collection
